These measurements were taken from PubChem BioAssay AID1963961.

system: K98450-129-R-PDC multicell spheroids, viability; test: Anticancer human tumor K98450-129-R-PDC patient-derived colon adenocarcinoma cell line growth inhibition [PI3K]; details: second compound 0.0316 µM; first compound 0.0316 µM; stronger effect = lower value
Here the recorded viability, T/C is given for each entry.

viability, T/C for Cn1ncnc1[C@H]1c2n[nH]c(=O)c3cc(F)cc(c23)N[C@@H]1c1ccc(F)cc1 + CC(Nc1ncnc2nc[nH]c12)c1cc2cccc(Cl)c2c(=O)n1-c1ccccc1 is 97.9%

viability, T/C for C[C@@H](NC(=O)c1ncnc(N)c1Cl)c1ncc(C(=O)Nc2cc(C(F)(F)F)c(Cl)cn2)s1 + CC(Nc1ccc2c(c1)OCCn1cc(N3C(=O)OCC3C(F)F)nc1-2)C(N)=O is 105%

viability, T/C for Cn1nccc1Nc1nccc(-c2ccn(C(CO)c3ccc(Cl)c(F)c3)c(=O)c2)n1 (stereo not drawn) + COc1c(OCCCN2CCOCC2)ccc2c3n(c(=NC(=O)c4cnc(N)nc4)nc12)CCN3 is 80.7%

====

test system: K98450-129-R-PDC multicell spheroids, viability; assay: Anticancer human tumor K98450-129-R-PDC cell line growth inhibition [PI3K]; details: second compound 0.0316 µM; first compound 0.0316 µM; stronger effect = lower value;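 note: spheroids exposed to agents for seven days before read-out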
Here the recorded viability, T/C is given for each entry.

Example results:
molecule	result
CC1(C)CCC(CN2CCN(c3ccc(C(=O)NS(=O)(=O)c4ccc(NCC5CCOCC5)c([N+](=O)[O-])c4)c(Oc4cnc5[nH]ccc5c4)c3)CC2)=C(c2ccc(Cl)cc2)C1 + Cc1nc(NC(=O)N2CCCC2C(N)=O)sc1-c1ccnc(C(C)(C)C(F)(F)F)c1	105%
CC(C)n1nc(-c2ccc3oc(N)nc3c2)c2c(N)ncnc21 + CC(Nc1ncnc2nc[nH]c12)c1cc2cccc(Cl)c2c(=O)n1-c1ccccc1	84.6%
C=CC(=O)N1CCN(c2nc(=O)n(-c3c(C)ccnc3C(C)C)c3nc(-c4c(O)cccc4F)c(F)cc23)C(C)C1 (centres undefined) + CC(Nc1ccc2c(c1)OCCn1cc(N3C(=O)OCC3C(F)F)nc1-2)C(N)=O	107%
CC(Cn1ccc(-c2ccc(C#N)c(Cl)c2)n1)NC(=O)c1cc(C(C)O)[nH]n1 (centres undefined) + CC(Nc1ncnc2nc[nH]c12)c1cc2cccc(Cl)c2c(=O)n1-c1ccccc1	119%
Cn1ncc(Cl)c1-c1cc(C(=O)NC(CN)Cc2cccc(F)c2)sc1Cl (centres undefined) + CC(Nc1ncnc2nc[nH]c12)c1cc2cccc(Cl)c2c(=O)n1-c1ccccc1	88.4%
CC(=O)c1c(C)c2cnc(Nc3ccc(N4CCNCC4)cn3)nc2n(C2CCCC2)c1=O + COc1c(OCCCN2CCOCC2)ccc2c3n(c(=NC(=O)c4cnc(N)nc4)nc12)CCN3	86.5%
CC(C)n1nc(-c2ccc3oc(N)nc3c2)c2c(N)ncnc21 + CC(Nc1ccc2c(c1)OCCn1cc(N3C(=O)OCC3C(F)F)nc1-2)C(N)=O	96.5%
CC1(C)CCC(Nc2ncc(C(F)(F)F)c(-c3c[nH]c4c(P(C)(C)=O)c(C#N)ccc34)n2)CN1 (centres undefined) + CC(Nc1ccc2c(c1)OCCn1cc(N3C(=O)OCC3C(F)F)nc1-2)C(N)=O	116%

Could you now look at the following molecule, please?
viability, T/C for CC(Cn1ccc(-c2ccc(C#N)c(Cl)c2)n1)NC(=O)c1cc(C(C)O)[nH]n1 (centres undefined) + Cc1nc(NC(=O)N2CCCC2C(N)=O)sc1-c1ccnc(C(C)(C)C(F)(F)F)c1 is 103%

====

tested on: K98450-129-R-PDC multicell spheroids, viability; assay: Anticancer human tumor K98450-129-R-PDC cell line growth inhibition [PI3K]; settings: curve of first compound; second compound 1 µM;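 note: spheroids exposed to agents for seven days before read-out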
pIC50: −log10 of the molar value.
Here the recorded pIC50 is given for each entry.

Example results:
compound	test.target	result
CC(C)NCC(C(=O)N1CCN(c2ncnc3c2C(C)CC3O)CC1)c1ccc(Cl)cc1 (stereo not drawn) + COc1c(OCCCN2CCOCC2)ccc2c3n(c(=NC(=O)c4cnc(N)nc4)nc12)CCN3	K98450-129-R-PDC multicell spheroids, viability	< 5.00
Cn1ncnc1[C@H]1c2n[nH]c(=O)c3cc(F)cc(c23)N[C@@H]1c1ccc(F)cc1 + CC(Nc1ccc2c(c1)OCCn1cc(N3C(=O)OCC3C(F)F)nc1-2)C(N)=O	K98450-129-R-PDC multicell spheroids, viability	< 7.00

Could you now look at the following compound, please?
pIC50 for Cn1nccc1Nc1nccc(-c2ccn(C(CO)c3ccc(Cl)c(F)c3)c(=O)c2)n1 (stereo not drawn) + CC(Nc1ccc2c(c1)OCCn1cc(N3C(=O)OCC3C(F)F)nc1-2)C(N)=O is < 5.00

====

tested on: K98450-129-R-PDC multicell spheroids, viability; experiment: Anticancer human tumor K98450-129-R-PDC cell line growth inhibition [PI3K]; details: second compound 0.01 µM; first compound 0.316 µM; stronger effect = lower value;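 note: spheroids exposed to agents for seven days before read-out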
Here the recorded viability, T/C is given for each entry.

Example results:
compound	viability, T/C
Cn1ncc(Cl)c1-c1cc(C(=O)NC(CN)Cc2cccc(F)c2)sc1Cl (stereo unspecified) + CC(Nc1ccc2c(c1)OCCn1cc(N3C(=O)OCC3C(F)F)nc1-2)C(N)=O	110%
C=CC(=O)N1CCN(c2nc(=O)n(-c3c(C)ccnc3C(C)C)c3nc(-c4c(O)cccc4F)c(F)cc23)C(C)C1 (stereo unspecified) + COc1c(OCCCN2CCOCC2)ccc2c3n(c(=NC(=O)c4cnc(N)nc4)nc12)CCN3	89.3%
C[C@@H](NC(=O)c1ncnc(N)c1Cl)c1ncc(C(=O)Nc2cc(C(F)(F)F)c(Cl)cn2)s1 + CC(Nc1ccc2c(c1)OCCn1cc(N3C(=O)OCC3C(F)F)nc1-2)C(N)=O	116%

viability, T/C for C[C@@H](NC(=O)c1ncnc(N)c1Cl)c1ncc(C(=O)Nc2cc(C(F)(F)F)c(Cl)cn2)s1 + COc1c(OCCCN2CCOCC2)ccc2c3n(c(=NC(=O)c4cnc(N)nc4)nc12)CCN3 is 115%

viability, T/C for CC(C)NCC(C(=O)N1CCN(c2ncnc3c2C(C)CC3O)CC1)c1ccc(Cl)cc1 (stereo unspecified) + COc1c(OCCCN2CCOCC2)ccc2c3n(c(=NC(=O)c4cnc(N)nc4)nc12)CCN3 is 99.3%

viability, T/C for CC(Cn1ccc(-c2ccc(C#N)c(Cl)c2)n1)NC(=O)c1cc(C(C)O)[nH]n1 (stereo unspecified) + CC(Nc1ccc2c(c1)OCCn1cc(N3C(=O)OCC3C(F)F)nc1-2)C(N)=O is 102%
